# Lookup of reported IC50 keyed by entry
biological target: Btk (Homo sapiens); construct: purified from insect cells as a full-length construct containing a N-terminal 6X-His tag; His6 (N); made in house; host or cells: insect cells (Method C); experiment: Btk in vitro inhibitory activity (one of Method A TR-FRET, Method B electrophoretic mobility shift, Method C radiometric filter binding); assay type: biochemical; conditions: wild-type Btk; read-out: Btk-WT IC50
Sequence (Q06187 whole entry): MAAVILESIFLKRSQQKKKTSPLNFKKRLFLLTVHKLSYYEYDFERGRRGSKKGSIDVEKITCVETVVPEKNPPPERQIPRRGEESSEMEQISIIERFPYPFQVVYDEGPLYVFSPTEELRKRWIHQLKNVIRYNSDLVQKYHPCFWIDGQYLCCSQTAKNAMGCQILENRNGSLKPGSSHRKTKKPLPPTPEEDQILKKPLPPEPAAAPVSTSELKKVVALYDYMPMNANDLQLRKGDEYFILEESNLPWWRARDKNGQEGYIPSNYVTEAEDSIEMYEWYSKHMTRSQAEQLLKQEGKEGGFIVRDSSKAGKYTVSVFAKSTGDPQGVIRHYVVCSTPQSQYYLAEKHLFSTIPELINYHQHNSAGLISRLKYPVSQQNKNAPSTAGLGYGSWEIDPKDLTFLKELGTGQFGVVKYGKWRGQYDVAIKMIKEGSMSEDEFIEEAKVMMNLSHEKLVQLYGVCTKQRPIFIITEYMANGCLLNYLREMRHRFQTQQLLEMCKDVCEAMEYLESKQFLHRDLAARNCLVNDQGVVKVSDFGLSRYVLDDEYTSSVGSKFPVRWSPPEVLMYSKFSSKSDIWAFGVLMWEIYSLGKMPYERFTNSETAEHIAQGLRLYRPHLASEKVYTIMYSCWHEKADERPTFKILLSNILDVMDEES
Measured parameter: IC50 (nM)

> print(dat)
                              smiles.string  value.measured
1  O=C(NCc1ccc(-c2ccnc3[nH]nc(N[C@@H]4CCNC4)c23)cc1F)c1ccc2scnc2c1             108
2  CC(C)(C)c1nc(C(=O)NCc2ccc(-c3ccnc4[nH]nc(N[C@@H]5CCNC5)c34)cc2F)co1            23.8
3  C=CC(=O)N(C)[C@@H]1CCN(c2n[nH]c3nccc(-c4ccc(CNC(=O)c5nc(C(C)(C)C)no5)c(F)c4)c23)C1          0.0423
4  C=CC(=O)N1CC[C@@H](Nc2n[nH]c3nccc(-c4ccc(CNC(=O)c5cc(C(C)(C)O)on5)c(F)c4)c23)C1            1.45

Values compiled from patent US20180194762A1.
